Tested on: human α7 nAChR (Homo sapiens)
Construct: expressed in transfected cells; host or cells: GH4C1 cells (rat pituitary, ATCC CCL-82.2)
Sequence (P36544 23-502): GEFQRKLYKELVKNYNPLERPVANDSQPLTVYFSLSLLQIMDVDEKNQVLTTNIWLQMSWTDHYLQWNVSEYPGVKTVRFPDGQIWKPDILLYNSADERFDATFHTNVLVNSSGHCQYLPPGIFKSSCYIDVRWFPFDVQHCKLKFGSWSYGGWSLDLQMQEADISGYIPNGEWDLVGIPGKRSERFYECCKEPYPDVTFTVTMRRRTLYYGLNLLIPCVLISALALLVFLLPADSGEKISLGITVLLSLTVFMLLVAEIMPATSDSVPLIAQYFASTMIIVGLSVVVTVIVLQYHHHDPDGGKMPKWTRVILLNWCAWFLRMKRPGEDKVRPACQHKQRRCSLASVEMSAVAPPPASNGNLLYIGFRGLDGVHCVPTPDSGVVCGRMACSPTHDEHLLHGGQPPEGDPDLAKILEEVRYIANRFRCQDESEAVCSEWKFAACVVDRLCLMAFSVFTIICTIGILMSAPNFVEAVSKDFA
Assay summary: Evaluation of PAM activity with human α7 nACh receptor stably expressing cells (aequorin luminescence, FDSS7000)
Type: cell-based
Condition set: test compound 10 μmol/L; ACh at EC20; ratio of RLU (Max-Min) of test-compound wells to control wells; human α7 nAChR expressing GH4C1 cells
# α7PAM (%) @ 10 μmol/L listing for each entry below
Just the number please, in %, no unit attached.

Worked examples, 7 compounds total:
1. CCc1ccc2c(cnn2C2CCN(C(=O)N[C@H]3CC[C@H](OC)CC3)CC2)c1OC ... 1096
2. Cc1ccc2c(cnn2C2CCN(C(=O)NC3CCCCC3)CC2)c1 ... 3053
3. O=C(Nc1ccc(C(F)(F)F)nc1)N1CCC(n2ncc3cc(C4CC4)ccc32)CC1 ... 220
4. Cc1ccc2c(cnn2C2CCN(C(=O)N[C@H]3CCCC3(F)F)CC2)c1 ... 1033
5. CO[C@H]1CCC[C@H](NC(=O)N2CCC(n3ncc4cc(C5CC5)ccc43)CC2)C1 ... 1034
6. CO[C@H]1CC[C@H](NC(=O)N2CCC(n3ncc4cc(OC(F)F)ccc43)CC2)CC1 ... 1433
7. O=C(C1CCOCC1)N1CCC(n2ncc3cc(F)ccc32)CC1 ... 190

Reported α7PAM (%) @ 10 μmol/L, compound Cc1ccc2c(cnn2C2CCN(C(=O)NC3CCC(OCC(F)(F)F)CC3)CC2)c1 (centres unmarked) : ____
420
